Catalogue of Kd values
- SYSTEM_TESTED: T1, human transferrin receptor (hTfR) fused to EGFP, on CHO cells (human, UniProt P02786 1-760)
- T1 construct: whole, on cells; also called human TfR; CHO-hTfR-EGFP; not shown: EGFP from pEGFP-C1 vector, fused to the N-terminal (intracellular) end of hTfR
- ASSAY_INFO: apparent Kd, flow cytometry, CHO cells
Answer with a number only, understood to be in µM.

Worked examples, 4 binders total:
BINDER	Kd, µM
C5^h17 (VHH) VHH: EVQLVESGGGVVQPGGSLKLSCVASGTDFSINFIRWVRQAPGKGLEFVAGFTATGNTNYADSMKGRFTISRDNTKNALYLQIDSLRPEDTAVYYCYMLDKWGQGTQVTVSS	0.63
C5^V24 (VHH) VHH: EVQLVESGGGVVQPGGSLKLSCVASGTDFSINFIRWYRQAPGKQREFVAGFTATGNTNYADSMKGRFTISRDNTKNAVYLQIDSLKPEDTAVYYCWMLDKWGQGTQVTVSS	0.0043
B8^V23 (VHH) VHH: EVQLVESGGGVVQPGGSLRLSCAASGEIFSINFMIWYRQAPGKQREWVAGFTRDGSTNYPDSAKGRFTISRDNAKNTVYLQIDSLKPEDTAVYYCYMLDTWGQGTQVTVSS	0.029
C5^h24 (VHH) VHH: EVQLVESGGGVVQPGGSLRLSCAASGTDFSINFIRWYRQAPGKGLEFVAGFTATGNTNYADSMKGRFTISRDNAKNTLYLQMNSLRPEDTAVYYCYMLDKWGQGTQVTVSS	0.0041

Q: // query Kd value for entry B8^V36 (VHH) VHH: EVQLVESGGGVVQPGGSLRLSCAASGEIFSINVMRWYRQAPGKQREWVAGFTRDGSTNYPDSAKGRFTISRDNAKNTVYLQIDSLKPEDTAVYYCYMLDTWGQGTQVTVSS
A: 0.027

Q: // query Kd value for entry B8^V27 (VHH) VHH: EVQLVESGGGVVQPGGSLRLSCAASGEIFSINFMRWYRQAPGKQREWVAGFTRDGSTVYPDSAKGRFTISRDNAKNTVYLQIDSLKPEDTAVYYCYMLDTWGQGTQVTVSS
A: 0.0068

Q: // query Kd value for entry B6^V2 (VHH) VHH: EVQLVESGGGLVQPGGSLRLSCTASGGPIEQYPMGWFRRAPGKERELVASFSRSGDGTYYAISSVKGRFTISRDNAENTVFLQMNSLKPDDTAVYYCGAGINPTKIWGQGTQVTVSS
A: 0.643

Q: // query Kd value for entry B8^V4 (VHH) VHH: EVQLVESGGGVVQPGGSLRLSCAASGEIFSINFMRWYRQAPIKQREWVAGFTRDGSTNYPDSAKGRFTISRDNAKNTVYLQIDSLKPEDTAVYYCYMLDTWGQGTQVTVSS
A: 0.0004
